ASSAY_NOTES: PMB pharmacokinetics after a single subcutaneous dose in neutropenic thigh-infected mice (two-compartment model)
Format: in vivo
REPORTED_CONDITIONS: male, Swiss RjOrl, mouse, plasma, sc; final PK model, linear elimination; estimate (%RSE); read-out: Clearance (converted)
Structures can show the parent of a compound that is named as a salt. Bridge positions count the residues as written; N and C are the ends. Square brackets hold non-standard residues; d marks the D form. Peptide text beside a SMILES is read from it. * marks the point of attachment. X1 = CC[C@H](C)CCCCC(=O)*; Dab = NCC[C@H](N)C(=O)O
PROPERTY_LABEL: CL/F

INSERT INTO results (compound, result) VALUES
  ('CC[C@H](C)CCCCC(=O)N[C@@H](CCN)C(=O)N[C@H](C(=O)N[C@@H](CCN)C(=O)N[C@H]1CCNC(=O)[C@H]([C@@H](C)O)NC(=O)[C@H](CCN)NC(=O)[C@H](CCN)NC(=O)[C@H](CC(C)C)NC(=O)[C@@H](Cc2ccccc2)NC(=O)[C@H](CCN)NC1=O)[C@@H](C)O [PMB, Polymyxin B sulfate] (X1-[Dab]T[Dab][Dab][Dab][dF]L[Dab][Dab]T; lactam 4-C)', '7.28 mL/min/kg');
